The values you see were collected from PubChem BioAssay AID2316.

assay: activators reversing PD-1 mediated T-cell inhibition, primary screen, luminescence, primary human CD4 T cells, PD-L1 beads (AID 2316); settings: CellTiter-Glo 96 h, stronger effect = higher value;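 further: 0% = median vehicle wells and 100% = positive control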
Out of some 29,000 compounds screened, fewer than 10 were called active. These entries were drawn from the full list.
Task for the reader: assign each of the following compounds its reported activation.
Give just the number in %; leave the unit off.

### Prompt Supply activation value. Item: "C[C@H]1CN([C@@H](C)CO)C(=O)c2cccc(NC(=O)c3ccncc3)c2O[C@H]1CN(C)C"
### Response 2.81

### Prompt Entry "Cc1ccc(C)c(OCC(=O)Nc2ccccc2C#N)c1" needs its activation filled in; supply it.
### Response -3.9

### Prompt Annotate the compound "COc1cccc2cc(C(=O)Nc3sc4c(c3C(N)=O)CCCCC4)c(=O)oc12" with its measured activation.
### Response 3.77

### Prompt Identify activation associated with the compound "C[C@H](CO)N1C[C@H](C)[C@H](CN(C)Cc2ccc3c(c2)OCO3)Oc2c(cccc2N(C)C)C1=O"
### Response 0.478

### Prompt Output measured activation for this item: "O=C(CSc1nnc(-c2ccccc2)c(-c2ccccc2)n1)Nc1ccccc1"
### Response 1.51

### Prompt Assign activation to the following record: "COc1ccc(Oc2ccc(NC(=O)CCC(=O)O)cc2)cc1"
### Response 0.302

### Prompt Quick one: give measured activation for "NC(=O)c1c(NC(=O)c2cnn3c(C(F)F)cc(-c4ccccc4)nc23)sc2c1CCCC2"
### Response -5.98

### Prompt Name the recorded activation of the compound listed here: "C[C@@H]1CN([C@@H](C)CO)C(=O)c2cc(NC(=O)Nc3ccccc3)ccc2O[C@@H]1CN(C)Cc1ccccc1"
### Response 1.95

### Prompt Annotate the compound "C[C@@H]1CN([C@@H](C)CO)C(=O)Cc2cc(NC(=O)CCCCCC(=O)Nc3ccccc3N)ccc2O[C@@H]1CN(C)C(=O)NC1CCCCC1" with its measured activation.
### Response 0.434

### Prompt State its activation for this compound: "Cc1ccc(NC(=O)CSc2nnc(C)n2-c2ccc(F)cc2)cc1Cl"
### Response 0.0225

### Prompt Check the records and state activation for "Cc1ccc(-n2c(C)nc3sc4c(c3c2=O)CCC4)cc1"
### Response -4.12

### Prompt Indicate its recorded activation; the compound in question is "COc1ccc(S(=O)(=O)N(C)CC(=O)Nc2cccc(C(F)(F)F)c2)cc1OC"
### Response -1.43

### Prompt Quickly give me recorded activation for "C[C@@H]1CN([C@H](C)CO)C(=O)Cc2cc(NC(=O)C3CCCCC3)ccc2O[C@@H]1CN(C)Cc1ccc(C(F)(F)F)cc1"
### Response -3.12

### Prompt Supply recorded activation for "CCO/C([O-])=N\c1c[n+](N2CCOCC2)no1" here.
### Response 0.71

### Prompt Annotate the compound "C[C@H]1CN([C@@H](C)CO)C(=O)Cc2cc(NC(=O)Nc3cccc4ccccc34)ccc2O[C@@H]1CN(C)S(=O)(=O)c1cn(C)cn1" with its measured activation.
### Response -0.329

### Prompt Determine its reported activation: "COc1ccc(S(=O)(=O)N(C)C[C@H]2Oc3ccc(NS(=O)(=O)c4c(C)noc4C)cc3CC(=O)N([C@@H](C)CO)C[C@H]2C)cc1"
### Response -0.136

### Prompt Tell us which activation value is on record for "Cc1noc(C)c1S(=O)(=O)N(C)C[C@@H]1Oc2c(NS(=O)(=O)c3cn(C)cn3)cccc2C(=O)N([C@H](C)CO)C[C@@H]1C"
### Response 1.65

### Prompt Write down activation measured for item "Cc1cc(C)c(C(=O)CSc2nc(C)cc(=O)[nH]2)c(C)c1"
### Response 1.17

### Prompt Hello, please tell me recorded activation for this one: "C[C@H]1CN([C@@H](C)CO)C(=O)c2cccc(NC(=O)CCCCCC(=O)Nc3ccccc3N)c2O[C@@H]1CN(C)CC1CCCCC1"
### Response 0.769

### Prompt Identify activation associated with the compound "Cc1noc(C)c1NC(=O)N(C)C[C@@H]1Oc2ccc(NC(=O)Nc3ccc(F)cc3)cc2C(=O)N([C@H](C)CO)C[C@@H]1C"
### Response -0.0779

### Prompt Please supply the value of reported activation for the item "COc1ccc(NC(=O)N(C)C[C@@H]2Oc3ccc(NC(=O)Nc4ccccc4)cc3CC(=O)N([C@H](C)CO)C[C@@H]2C)cc1"
### Response -0.196

### Prompt Supply activation value. Item: CCc1cc(C)cc(OCC(O)Cn2cnc3ccccc32)c1 (stereo not drawn)
### Response -5.01

### Prompt Look up activation of "CC(=O)NCCc1nc2cc(NC(=O)c3ccccc3)ccc2n1C" and report it.
### Response 2.35

### Prompt Output measured activation for this item: COc1cc(C2OC(c3cc(OC)c(OC)c(OC)c3)C(C)C2C)cc(OC)c1OC (stereo not drawn)
### Response 0.69

### Prompt Give activation for the following compound: "C[C@@H]1CCCCO[C@H](CN(C)Cc2ccncc2)[C@@H](C)CN([C@H](C)CO)C(=O)c2cc(NC(=O)CCCN(C)C)ccc2O1"
### Response 0.961

### Prompt Quickly give me recorded activation for "C[C@@H]1CN([C@H](C)CO)C(=O)c2cc(NC(=O)Nc3ccc4c(c3)OCO4)ccc2O[C@H]1CN(C)C(=O)Nc1ccccc1"
### Response 0.77

### Prompt Let me know recorded activation for "O=C(CSc1nnc(-c2ccccc2)n1-c1ccc(Cl)cc1)Nc1ccc(Cl)cc1" , thanks.
### Response -11.8

### Prompt Using the record for C/C=C(/C)C(=O)O[C@H]1CC(C)(C)C[C@H]2C3=CCC4[C@@]5(C)CC[C@H](O[C@@H]6O[C@H](C(=O)O)[C@@H](O[C@@H]7O[C@H](CO)[C@H](O)[C@H](O)[C@H]7O[C@@H]7O[C@H](CO)[C@@H](O)[C@H](O)[C@H]7O)[C@H](O)[C@H]6O[C@@H]6O[C@@H](C)[C@H](O)[C@@H](O)[C@H]6O)C(C)(C)C5CC[C@@]4(C)[C@]3(C)[C@@H](OC(C)=O)[C@@H](O)[C@@]12COC(C)=O (stereo partly drawn) , state its measured activation.
### Response -14.9

### Prompt Retrieve activation measured for "N#Cc1c(SCC(=O)Nc2ccc(F)cc2Cl)nc2c(c1C(F)(F)F)CCCCC2" and print it.
### Response 0.417

### Prompt # return recorded activation for input "O=C(Nc1ccc(C23CC4CC(CC(C4)C2)C3)cc1)c1cccs1"
### Response 0.396

### Prompt Assign activation to the following record: "COc1ccc(S(=O)(=O)NCc2ccccn2)cc1I"
### Response 1.57

### Prompt Return the recorded activation value; entry: "O=c1c2ccccc2nc(SCc2ccc(F)cc2)n1-c1ccccc1"
### Response -10.1

### Prompt Return value of activation for input "C[C@@H]1CN([C@@H](C)CO)C(=O)c2cc(NS(C)(=O)=O)ccc2O[C@@H]1CN(C)C(=O)Nc1ccc(F)cc1" , no commentary.
### Response 2.2

###

test: activators reversing PD-1 mediated T-cell inhibition, primary screen, luminescence, primary human CD4 T cells, PD-L1 beads (AID 2316); details: CellTiter-Glo 96 h, stronger effect = higher value;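 further: 0% = median vehicle wells and 100% = positive control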
Fewer than 10 of roughly 29,000 compounds were called active. These entries were drawn from the full list.
ENDPOINT: activation (%)
Enter your answer as a number in %; do not include the unit.

### Prompt Kindly indicate its recorded activation. Item: "O=C(Nc1ccc(C(=O)OCc2cccc(C(=O)c3ccccc3)c2)cc1)c1ccccc1"
### Response -0.837

### Prompt Identify activation associated with the compound "COc1ccc(S(=O)(=O)Nc2ccc3c(c2)C(=O)N([C@H](C)CO)C[C@H](C)[C@@H](CN(C)S(C)(=O)=O)OCCCC[C@@H](C)O3)cc1"
### Response 0.638

### Prompt Give recorded activation. "COc1ccc(NC(=O)Nc2ccc3c(c2)C(=O)N([C@H](C)CO)C[C@@H](C)[C@H](CN(C)Cc2ccccc2)O3)cc1"
### Response -0.421

### Prompt In one line, give reported activation of the entry "CC(C)(C)c1ccc(S(=O)(=O)NCC(=O)Nc2ccc(F)cc2)cc1" .
### Response -2.51

### Prompt Please report the measured activation for "O=C(CCCN1C(=O)c2ccccc2C1=O)Nc1cccc2c1CCCC2"
### Response 1.14

### Prompt Annotate the compound "C[C@@H]1CCCCO[C@@H](CN(C)C(=O)CCCN(C)C)[C@@H](C)CN([C@H](C)CO)C(=O)c2cc(NC(=O)Nc3ccc(F)cc3)ccc2O1" with its measured activation.
### Response 0.492

### Prompt Specify activation for CS(=O)(=NS(=O)(=O)c1ccc(OC(F)(F)F)cc1)c1ccc(Cl)cc1 (configuration not stated) and stop.
### Response 0.43

### Prompt Please look at this compound and report its activation: "COc1ccc(S(=O)(=O)Nc2ccc3c(c2)C(=O)N([C@H](C)CO)C[C@@H](C)[C@H](CN(C)S(=O)(=O)c2ccc(C)cc2)O3)cc1"
### Response 0.261

### Prompt For "Cc1ccc(C23CC4CC(CC(CN)(C4)C2)C3)cc1C" , write its activation.
### Response -7.62

### Prompt Provide activation value for the following compound: "O=C(NCc1ccccn1)C(=O)Nc1cccc(Cl)c1Cl"
### Response 2.26

### Prompt Answer with the recorded activation of "Cc1ccc(S(=O)(=O)Nc2cccc3c2O[C@@H](CN(C)C(=O)Nc2ccccc2)[C@H](C)CN([C@@H](C)CO)C3=O)cc1" only.
### Response 2.15

### Prompt Please report the measured activation for "CC(C)NC(=O)N(C)C[C@@H]1Oc2ccc(NS(=O)(=O)c3ccccc3)cc2C(=O)N([C@@H](C)CO)C[C@H]1C"
### Response 1.49

### Prompt Could you please provide reported activation for "CS(=O)(=O)N(CC(=O)Nc1cc(Cl)ccc1Cl)c1ccc(Oc2ccccc2)cc1" ? Thanks!
### Response 0.0184

### Prompt Determine from records and report activation for "COc1ccc(NC(=O)N(C)C[C@@H]2OCCCC[C@@H](C)Oc3ccc(N(C)C)cc3C(=O)N([C@H](C)CO)C[C@@H]2C)cc1"
### Response 0.076

### Prompt Note down activation recorded for "Cc1ccc(-c2csc3ncn(CC(=O)Nc4ccc(F)c(Cl)c4)c(=O)c23)cc1C"
### Response -0.0295

### Prompt Hello, please tell me recorded activation for this one: "C[C@@H]1CN([C@H](C)CO)C(=O)Cc2cc(NS(=O)(=O)c3ccc(F)cc3)ccc2O[C@H]1CN(C)C"
### Response 2.25

### Prompt Give the value of activation reported for the following: "CC(C)(C)c1cn2c3ccccc3nc2n1CCN1CCOCC1"
### Response -2.35
